Give standardized gMFI for every item shown.
- target: T1, HLA-A2 / homologous peptide IL20RB complex on T2 cells (human)
- T1 construct: whole, on cells; also called T2 cells supplemented with homologous peptide IL20RB
- assay-overview: flow cytometry on peptide-pulsed T2 cells, scFv 100 nM;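 also: scFv binding read as gMFI and normalized to the level of HLA/peptide complex displayed on T2 cells, with homologous 9-mer peptides used to probe specificity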

q: standardized gMFI for NYA-2047 (scFv) scFv: GQVQLVESGGGVVQPGRSLRLSCAASGFSIRSYDMHWVRQAPGKGLEWVATISYDGSQKYYADSVKGRFTISRDNSKNTLYLQMSSLRAEDTAVYHCARGSSGHYEAFDIWGQGTLVTVSSGGGGSGGGGSGGGGSQSVLTQPPSVSAAPGQKVTISCSGSSSNIGNWYVSWYQQLPGTAPKLLIYDNNKRPSGIPDRFSGSKSGTSATLGITGLQTGDEADYYCGTWDSSLSAPWVFGGGTKVTVLGAAAGAGGDYKDDDDKGAAAHHHHHH ?
a: 0.43

q: // repeat for NYA-2143 (scFv) scFv: GEVQLVESGGGVVQPGRSLTPSCSASGFSIRSYDIHWVRLAPGKGLEWVATISYDGSQKYFADSVKGRFTIFRDESENMVYLQMSGLRVEDTAVYHCARGSSGHYEAFDIWGQGTMVTVSSGGGGSGGGGSGGGGSQSVLTQPPSVSAAPGQKVTISCSGSSSNIGNWYVSWYQRLPGTAPKLLIYDNNKRPSGIPDRFSGSKSGTSATLGITGLQTGDEADYYCGTWDSSLSAPWVFGGGTKVTVLGAAAGAGGDYKDDDDKGAAAHHHHHH and report
a: 0.42

q: // repeat for NYA-2060 (scFv, also called NYA-2060 tag adduct) scFv: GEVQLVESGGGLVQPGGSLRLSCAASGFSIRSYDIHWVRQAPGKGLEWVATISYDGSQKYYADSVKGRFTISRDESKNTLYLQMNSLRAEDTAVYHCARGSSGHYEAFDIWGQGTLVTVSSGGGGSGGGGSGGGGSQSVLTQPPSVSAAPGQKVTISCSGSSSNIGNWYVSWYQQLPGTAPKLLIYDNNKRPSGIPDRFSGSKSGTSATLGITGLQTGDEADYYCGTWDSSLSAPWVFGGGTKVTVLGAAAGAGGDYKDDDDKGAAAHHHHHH and report
a: 0.45

q: // repeat for NYC-0004 (scFv, not shown: small tags and cut ends, also called T1 scFv; NYC-0004 tag adduct) scFv: EVQLLESGGGLVQPGGSLRLSCAASGFTFSTYQMSWVRQAPGKGLEWVSGIVSSGGSTAYADSVKGRFTISRDNSKNTLYLQMNSLRAEDTAVYYCAGELLPYYGMDVWGQGTTVTVSSGGGGSGGGGSGGGGSQSELTQPRSVSGSPGQSVTISCTGTERDVGGYNYVSWYQQHPGKAPKLIIHDVIERSSGVPDRFSGSKSGNTASLTISGLQAEDEADYYCWSFAGGYYVFGTGTDVTVL and report
a: 0.43

q: // repeat for NYA-2045 (scFv, also called NYA-2045 tag adduct) scFv: GEVQLVESGGGLVQPGGSLRLSCAASGFSIRSYDIHWVRLAPGKGLEWVATISYDGSQKYYADSVKGRFTISRDESKNTLYLQMNSLRAEDTAVYHCARGSSGHYEAFDIWGQGTLVTVSSGGGGSGGGGSGGGGSQSVLTQPPSASGTPGQRVTISCSGSSSNIGNWYVSWYQQLPGTAPKLLIYDNNKRPSGVPDRFSGSKSGTSASLAISGLQSEDEADYYCGTWDSSLSAPWVFGGGTKLTVLGAAAGAGGDYKDDDDKGAAAHHHHHH and report
a: 0.47

q: // repeat for NYA-1143 (scFv) scFv: GEVQLVESGGGVVQPGRSLTPSCSASGFSIRSYDIHWVRLAPGKGLEWVATISYDGSQKYFADSVKGRFTIFRDESENMVYLQMSGLRVEDTAVYHCARGSSGHYEAFDIWGQGTMVTVSSGGGGSGGGGSGGGGSQSVLTQPPSVSAAPGQKVTISCSGSSSNIGNWYVSWYQQLPGTAPKLLIYDNNKRPSGIPDRFSGSKSGTSATLGITGLQTGDEADYYCGTWDSSLSAPWVFGGGTKVTVLGAAAGAGGDYKDDDDKGAAAHHHHHH and report
a: 0.42

q: // repeat for NYA-2023 (scFv) scFv: GEVQLVESGGGVVQPGRSLTPSCSASGFSIRSYDIHWVRQAPGKGLEWVATISYDGSQKYFADSVKGRFTIFRDESENMVYLQMSGLRVEDTAVYHCARGSSGHYEAFDIWGQGTMVTVSSGGGGSGGGGSGGGGSQSVLTQPPSVSAAPGQKVTISCSGSSSNIGNWYVSWYQQLPGTAPKLLIYDNNKRPSGIPDRFSGSKSGTSATLGITGLQTGDEADYYCGTWDSSLSAPWVFGGGTKVTVLGAAAGAGGDYKDDDDKGAAAHHHHHH and report
a: 0.42

q: // repeat for NYA-2035 (scFv) scFv: GEVQLVESGGGVVQPGRSLTPSCSASGFSIRSYDIHWVRLAPGKGLEWVATISYDGSQKYFADSVKGRFTIFRDESENMVYLQMSGLRVEDTAVYHCARGSSGHYEAFDIWGQGTMVTVSSGGGGSGGGGSGGGGSQSVLTQPPSVSAAPGQKVTISCSGSSSNIGNWKVSWYQQLPGTAPKLLIYDNNKRPSGIPDRFSGSKSGTSATLGITGLQTGDEADYYCGTWDSSLSAPWVFGGGTKVTVLGAAAGAGGDYKDDDDKGAAAHHHHHH and report
a: 0.41

q: // repeat for NYA-2027 (scFv) scFv: GEVQLVESGGGVVQPGRSLTPSCSASGFSIRSYDIHWVRQAPGKGLEWVATISYDGSQKYFADSVKGRFTIFRDESENMVYLQMSGLRVEDTAVYHCARGSSGHYEAFDIWGQGTMVTVSSGGGGSGGGGSGGGGSQSVLTQPPSVSAAPGQKVTISCSGSSSNIGNNYVSWYQQLPGTAPKLLIYDNNKRPSGIPDRFSGSKSGTSATLGITGLQTGDEADYYCGSWDSSLSAPWVFGGGTKVTVLGAAAGAGGDYKDDDDKGAAAHHHHHH and report
a: 0.42
